Target: human MOPr (Homo sapiens, UniProt P35372)
Sequence (P35372 whole entry): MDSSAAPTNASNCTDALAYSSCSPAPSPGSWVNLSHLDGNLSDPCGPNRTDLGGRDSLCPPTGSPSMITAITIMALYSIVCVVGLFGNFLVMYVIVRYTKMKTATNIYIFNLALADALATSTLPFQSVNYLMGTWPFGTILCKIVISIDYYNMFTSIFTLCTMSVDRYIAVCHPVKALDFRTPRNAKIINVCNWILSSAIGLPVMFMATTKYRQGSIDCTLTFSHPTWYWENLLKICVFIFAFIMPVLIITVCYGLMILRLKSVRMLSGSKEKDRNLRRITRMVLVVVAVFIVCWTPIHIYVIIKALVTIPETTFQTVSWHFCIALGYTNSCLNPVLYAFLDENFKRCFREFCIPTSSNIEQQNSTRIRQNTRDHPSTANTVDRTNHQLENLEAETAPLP
Assay: BRET1 β-arrestin-2 recruitment assay
Type: cell-based
Set-up: expressed in transfected cells; host or cells: HEK293 cells stably expressing eYFP-β-arrestin-2, transiently transfected with the Rluc8-MOP plasmid
Settings: in words
Starred links: 1 amine or outer side, 2 acyl side, 3 side chain; linkers in the order of their positions; H or OH if unused. Non-standard residues stand in square brackets, D forms with d. Residues, ends and D or L forms follow the SMILES beside them. Nva(5-(4-Bn-piperidin-1-yl)) = N[C@@H](CCCN1CCC(Cc2ccccc2)CC1)C(=O)O; X5 = O=C1[C@@H](N[*:1])Cc2ccccc2CN1CCCC(=O)[*:2]; X1 = O=C1[C@@H](N[*:1])Cc2ccccc2CN1CCC(=O)[*:2]; Dmt = Cc1cc(O)cc(C)c1C[C@H](N)C(=O)O; d(hArg) = N=C(N)NCCCC[C@@H](N)C(=O)O; dNMeA = CN[C@H](C)C(=O)O
endpoint.label: β-arrestin-2 recruitment

1) Cc1cc(O)cc(C)c1C[C@H](N)C(=O)N(C)[C@H](C)C(=O)N[C@H]1Cc2ccccc2CN(CCCC(=O)N[C@@H](CCCN2CCC(Cc3ccccc3)CC2)C(=O)N[C@@H](Cc2ccccc2)C(N)=O)C1=O [DP0017, H-Dmt-N(Me)-D-Ala-AbaGABA-Bpa-Phe-NH2] (H-[Dmt][dNMeA][X5][Nva(5-(4-Bn-piperidin-1-yl))]F-NH2); non-detectable
2) Cc1cc(O)cc(C)c1C[C@H](N)C(=O)N1CCC[C@@H]1C(=O)N[C@H]1Cc2ccccc2CN(CCC(=O)N[C@@H](CCCN2CCC(Cc3ccccc3)CC2)C(=O)N[C@@H](Cc2ccccc2)C(N)=O)C1=O [DP0008, H-Dmt-D-Pro-Aba-β-Ala-Bpa-Phe-NH2] (H-[Dmt][dP][X1][Nva(5-(4-Bn-piperidin-1-yl))]F-NH2); non-detectable
3) Cc1cc(O)cc(C)c1C[C@H](N)C(=O)N[C@H](CCCCNC(=N)N)C(=O)N[C@H]1Cc2ccccc2CN(CCC(=O)N[C@@H](CCCN2CCC(Cc3ccccc3)CC2)C(=O)N[C@@H](Cc2ccccc2)C(N)=O)C1=O [DP0033, H-Dmt-D-hArg-Aba-β-Ala-Bpa-Phe-NH2] (H-[Dmt][d(hArg)][X1][Nva(5-(4-Bn-piperidin-1-yl))]F-NH2); non-detectable
4) Cc1cc(O)cc(C)c1C[C@H](NC(=N)N)C(=O)N[C@H](CCCNC(=N)N)C(=O)N[C@H]1Cc2ccccc2CN(CCC(=O)N[C@@H](CCCN2CCC(Cc3ccccc3)CC2)C(=O)N[C@@H](Cc2ccccc2)C(N)=O)C1=O [DP0032, Guanidyl-Dmt-D-Arg-Aba-β-Ala-Bpa-Phe-NH2]; non-detectable
5) Cc1cc(O)cc(C)c1C[C@H](N)C(=O)N[C@H](CCCNC(=N)N)C(=O)N[C@H]1Cc2ccccc2CN(CCC(=O)N[C@@H](CCCN2CCC(Cc3ccccc3)CC2)C(=O)N[C@@H](Cc2ccccc2)C(N)=O)C1=O [KGFF09, H-Dmt-D-Arg-Aba-β-Ala-Bpa-Phe-NH2]; partial agonism
6) Cc1cc(O)cc(C)c1C[C@H](N)C(=O)N[C@H](CCCNC(=N)N)C(=O)N[C@H]1Cc2ccccc2CN(CCC(=O)N[C@@H](CCCNC(=N)N)C(=O)N[C@@H](Cc2ccccc2)C(N)=O)C1=O [KGFF03, H-Dmt-D-Arg-Aba-β-Ala-Arg-Phe-NH2] (HELM PEPTIDE1{[Cc1cc(O)cc(C)c1C[C@H](N)C(=O)[*:2]].[dR].[O=C1[C@@H](N[*:1])Cc2ccccc2CN1CCC(=O)[*:2]].R.F.[am]}$$$$V2.0); partial agonism
7) Cc1cc(O)cc(C)c1C[C@H](N)C(=O)N[C@H](CCCCN)C(=O)N[C@H]1Cc2ccccc2CN(CCC(=O)N[C@@H](CCCN2CCC(Cc3ccccc3)CC2)C(=O)N[C@@H](Cc2ccccc2)C(N)=O)C1=O [DP0029, H-Dmt-D-Lys-Aba-β-Ala-Bpa-Phe-NH2] (H-[Dmt][dK][X1][Nva(5-(4-Bn-piperidin-1-yl))]F-NH2); non-detectable

* * *

Overview of recorded EC50 for various compounds
Biological target: human MOPr (Homo sapiens, UniProt P35372)
Assay: cell-based
Format: cell-based
Parameters: expressed in transfected cells; HEK293-Glo20F cells (cAMP)
Conditions: Table 3a; HEK293-Glo20F-hMOPr cells; read-out: MOPr (cAMP) EC50
Residues, ends and D or L forms follow the SMILES beside them.
endpoint.label: EC50 (nM)

1) CNC(=O)[C@H](Cc1ccccc1)NC(=O)[C@@H](CCCNC(=N)N)NC(=O)[C@@H](N)Cc1c(C)cc(O)cc1C [KGFF13, H-Dmt-D-Arg-Phe-NHMe] (HELM PEPTIDE1{[Cc1cc(O)cc(C)c1C[C@H](N)C(=O)[*:2]].[dR].F.[CN[*:1]]}$$$$V2.0); 1
2) Cc1cc(O)cc(C)c1C[C@H](N)C(=O)N[C@H](CCCNC(=N)N)C(=O)N[C@H]1Cc2ccccc2CN(CC(=O)N[C@@H](CCCN)C(=O)N[C@@H](Cc2ccccc2)C(N)=O)C1=O [KGFF04, H-Dmt-D-Arg-Aba-Gly-Orn-Phe-NH2]; 9.5
3) Cc1cc(O)cc(C)c1C[C@H](N)C(=O)N[C@H](CCCNC(=N)N)C(=O)N[C@H]1Cc2ccccc2CN(CCC(=O)N[C@@H](CCCNC(=N)N)C(=O)N[C@@H](Cc2ccccc2)C(N)=O)C1=O [KGFF03, H-Dmt-D-Arg-Aba-β-Ala-Arg-Phe-NH2] (HELM PEPTIDE1{[Cc1cc(O)cc(C)c1C[C@H](N)C(=O)[*:2]].[dR].[O=C1[C@@H](N[*:1])Cc2ccccc2CN1CCC(=O)[*:2]].R.F.[am]}$$$$V2.0); 12
4) Cc1cc(O)cc(C)c1C[C@H](N)C(=O)N[C@H](CCCNC(=N)N)C(=O)N[C@H]1Cc2ccccc2CNC1=O [KGFF12, H-Dmt-D-Arg-Aba-NH]; 2.7

* * *

Target: UniProtKB P35372
Assay: cell-based
Type: cell-based
Design: expressed in transfected cells; HEK293-Glo20F cells (cAMP)
Conditions: Table 3B; read-out: MOPr (cAMP) EC50
Starred links: 1 amine or outer side, 2 acyl side, 3 side chain; linkers in the order of their positions; H or OH if unused. Non-standard residues stand in square brackets, D forms with d. Residues, ends and D or L forms follow the SMILES beside them. Nva(5-(4-Bn-piperidin-1-yl)) = N[C@@H](CCCN1CCC(Cc2ccccc2)CC1)C(=O)O; X5 = O=C1[C@@H](N[*:1])Cc2ccccc2CN1CCCC(=O)[*:2]; Dmt = Cc1cc(O)cc(C)c1C[C@H](N)C(=O)O
endpoint.label: EC50

1. Cc1cc(O)cc(C)c1C[C@H](N)C(=O)N[C@H](CCCNC(=N)N)C(=O)N[C@H]1Cc2ccccc2CN(CCCC(=O)N[C@@H](CCCN2CCC(Cc3ccccc3)CC2)C(=O)N[C@@H](Cc2c[nH]c3ccccc23)C(N)=O)C1=O [DP0022, H-Dmt-D-Arg-AbaGABA-Bpa-Trp-NH2] (H-[Dmt][dR][X5][Nva(5-(4-Bn-piperidin-1-yl))]W-NH2); 5 nM
2. Cc1cc(O)cc(C)c1C[C@H](N)C(=O)N[C@H](CCCNC(=N)N)C(=O)N[C@H]1Cc2ccccc2CN(CCC(=O)N[C@@H](CCCN2CCC(Cc3ccccc3)CC2)C(=O)N[C@H](Cc2ccccc2)C(N)=O)C1=O; 5.9 nM

* * *

Biological target: human MOPr (Homo sapiens)
Experiment: cell-based
Type: cell-based
Set-up: expressed in transfected cells; HEK293-Glo20F cells (cAMP)
Settings: Table 3B; read-out: MOPr (cAMP) EC50
pEC50: −log10 of the molar value. Starred links: 1 amine or outer side, 2 acyl side, 3 side chain; linkers in the order of their positions; H or OH if unused. Non-standard residues stand in square brackets, D forms with d. Residues, ends and D or L forms follow the SMILES beside them. Nva(5-(4-Bn-piperidin-1-yl)) = N[C@@H](CCCN1CCC(Cc2ccccc2)CC1)C(=O)O; X1 = O=C1[C@@H](N[*:1])Cc2ccccc2CN1CCC(=O)[*:2]; Dmt = Cc1cc(O)cc(C)c1C[C@H](N)C(=O)O; d(hArg) = N=C(N)NCCCC[C@@H](N)C(=O)O; dNMeA = CN[C@H](C)C(=O)O; βAla = NCCC(=O)O
endpoint.label: pEC50

1) Cc1cc(O)cc(C)c1C[C@H](N)C(=O)N[C@H](CCCCNC(=N)N)C(=O)N[C@H]1Cc2ccccc2CN(CCC(=O)N[C@@H](CCCN2CCC(Cc3ccccc3)CC2)C(=O)N[C@@H](Cc2ccccc2)C(N)=O)C1=O [DP0033, H-Dmt-D-hArg-Aba-β-Ala-Bpa-Phe-NH2] (H-[Dmt][d(hArg)][X1][Nva(5-(4-Bn-piperidin-1-yl))]F-NH2); 7.60
2) Cc1cc(O)cc(C)c1C[C@H](N)C(=O)N[C@H](CCCNC(=N)N)C(=O)N[C@H]1Cc2ccccc2CN(CCC(=O)N[C@@H](CCCN2CCC(Cc3ccccc3)CC2)C(=O)N[C@@H](Cc2ccccc2)C(=O)NCCC(N)=O)C1=O [DP0016, H-Dmt-D-Arg-Aba-β-Ala-Bpa-Phe-β-Ala-NH2] (H-[Dmt][dR][X1][Nva(5-(4-Bn-piperidin-1-yl))]F[βAla]-NH2); 7.72
3) Cc1cc(O)cc(C)c1C[C@H](N)C(=O)N[C@H](CCCN1CCC(Cc2ccccc2)CC1)C(=O)N[C@H]1Cc2ccccc2CN(CCC(=O)N[C@@H](CCCN2CCC(Cc3ccccc3)CC2)C(=O)N[C@@H](Cc2ccccc2)C(N)=O)C1=O; 6.10
4) Cc1cc(O)cc(C)c1C[C@H](N)C(=O)N[C@H](CCCNC(=N)N)C(=O)N[C@@H](Cc1ccccc1)C(=O)N(C)CC(=O)N[C@@H](CCCN1CCC(Cc2ccccc2)CC1)C(=O)N[C@H](C(N)=O)C(C)C [DP0025, H-Dmt-D-Arg-Phe-N(Me)Gly-Bpa-Val-NH2] (HELM PEPTIDE1{[Cc1cc(O)cc(C)c1C[C@H](N)C(=O)[*:2]].[dR].F.[Sar].[O=C([C@H](CCCN1CCC(Cc2ccccc2)CC1)N[*:1])[*:2]].V.[am]}$$$$V2.0); 8.15
5) Cc1cc(O)cc(C)c1C[C@H](N)C(=O)N[C@H](CCCNC(=N)N)C(=O)N[C@@H](Cc1ccccc1)C(=O)N(C)[C@H](C)C(=O)N[C@@H](CCCN1CCC(Cc2ccccc2)CC1)C(=O)N[C@@H](Cc1ccccc1)C(N)=O [DP0030, H-Dmt-D-Arg-Phe-N(Me)-D-Ala-Bpa-Phe-NH2] (H-[Dmt][dR]F[dNMeA][Nva(5-(4-Bn-piperidin-1-yl))]F-NH2); 7.56
